# test.details: Hydrodynamic radius and size distribution of micelles by dynamic light scattering (DLS)
# Type: physicochemical
# Protocol: A method of measuring the radius of a micelle is not specifically limited and may be any method generally known in the art. For example, the radius may be measured by a dynamic light scattering (DLS) experiment. In particular, critical micellar concentrations (CMCs) were measured using hydrophobic fluorescence staining and diphenylhexatriene (DPH), and hydrodynamic radii (Rh) of micelles formed of each material were measured by a dynamic light scattering (DLS) experiment. […]
property.label: Rh (hydrodynamic radius of micelles) (nm)
Write the value in nm as a bare number.

Completed entries (count: 3):
CCCCCCCCCCCCC(CCCCCCCCCCCC)C(=O)NC(CO[C@@H]1OC(CO)[C@@H](O)C(O)C1O)(CO[C@@H]1OC(CO)[C@@H](O)C(O)C1O)CO[C@@H]1OC(CO)[C@@H](O)C(O)C1O (some centres unmarked) [TDT-C12]    53
CCCCCCCCCC(CCCCCCCCC)C(=O)NC(CO[C@@H]1OC(CO)[C@@H](O)C(O)C1O)(CO[C@@H]1OC(CO)[C@@H](O)C(O)C1O)CO[C@@H]1OC(CO)[C@@H](O)C(O)C1O (some centres unmarked) [TDT-C9]    3.4
CCCCCCCCCCC(CCCCCCCCCC)C(=O)NC(CO[C@@H]1OC(CO)[C@@H](O)C(O)C1O)(CO[C@@H]1OC(CO)[C@@H](O)C(O)C1O)CO[C@@H]1OC(CO)[C@@H](O)C(O)C1O (some centres unmarked) [TDT-C10]    4.5

Data point: CCCCCCCCCCC(CCCCCCCCCC)COCC(CO[C@@H]1OC(CO)[C@@H](O)C(O)C1O)(CO[C@@H]1OC(CO)[C@@H](O)C(O)C1O)CO[C@@H]1OC(CO)[C@@H](O)C(O)C1O (some centres unmarked) [NDT-C10] ; Rh (hydrodynamic radius of micelles) = 3.2

Briefly, Rh (hydrodynamic radius of micelles) measured for CCCCCCCCCCCCC(CCCCCCCCCCCC)COCC(CO[C@@H]1OC(CO)[C@@H](O)C(O)C1O)(CO[C@@H]1OC(CO)[C@@H](O)C(O)C1O)CO[C@@H]1OC(CO)[C@@H](O)C(O)C1O (some centres unmarked) [NDT-C12] : 3.8

###

# test.details: Hydrodynamic radius and size distribution of micelles by dynamic light scattering (DLS)
# Format: physicochemical
Reported Rh (hydrodynamic radius of micelles) values follow for various compounds
Respond with the bare value in nm.

Recorded results for 3 compounds are shown here.
CCCCCCCCCCCCOC1OC(CO)C(OC2OC(CO)C(O)C(O)C2O)C(O)C1O [DDM, n-dodecyl-β-D-maltopyranoside, reference compound]    3.4
CCCCCCCCCCCC(CCCCCCCCCCC)C(=O)NC(CO[C@@H]1OC(CO)[C@@H](O)C(O)C1O)(CO[C@@H]1OC(CO)[C@@H](O)C(O)C1O)CO[C@@H]1OC(CO)[C@@H](O)C(O)C1O (stereo partly shown)    37
CCCCCCCCCCCC(CCCCCCCCCCC)COCC(CO[C@@H]1OC(CO)[C@@H](O)C(O)C1O)(CO[C@@H]1OC(CO)[C@@H](O)C(O)C1O)CO[C@@H]1OC(CO)[C@@H](O)C(O)C1O (stereo partly shown)    3.5

Attention now turns to another entry.
Consider CCCCCCCCCC(CCCCCCCCC)COCC(CO[C@@H]1OC(CO)[C@@H](O)C(O)C1O)(CO[C@@H]1OC(CO)[C@@H](O)C(O)C1O)CO[C@@H]1OC(CO)[C@@H](O)C(O)C1O (stereo partly shown) . Its measured Rh (hydrodynamic radius of micelles) is 3.1
